Source: ChEMBL document CHEMBL1139168

tested.target: Sodium-dependent serotonin transporter (Rattus norvegicus, UniProt P31652)
Sequence (P31652 whole entry): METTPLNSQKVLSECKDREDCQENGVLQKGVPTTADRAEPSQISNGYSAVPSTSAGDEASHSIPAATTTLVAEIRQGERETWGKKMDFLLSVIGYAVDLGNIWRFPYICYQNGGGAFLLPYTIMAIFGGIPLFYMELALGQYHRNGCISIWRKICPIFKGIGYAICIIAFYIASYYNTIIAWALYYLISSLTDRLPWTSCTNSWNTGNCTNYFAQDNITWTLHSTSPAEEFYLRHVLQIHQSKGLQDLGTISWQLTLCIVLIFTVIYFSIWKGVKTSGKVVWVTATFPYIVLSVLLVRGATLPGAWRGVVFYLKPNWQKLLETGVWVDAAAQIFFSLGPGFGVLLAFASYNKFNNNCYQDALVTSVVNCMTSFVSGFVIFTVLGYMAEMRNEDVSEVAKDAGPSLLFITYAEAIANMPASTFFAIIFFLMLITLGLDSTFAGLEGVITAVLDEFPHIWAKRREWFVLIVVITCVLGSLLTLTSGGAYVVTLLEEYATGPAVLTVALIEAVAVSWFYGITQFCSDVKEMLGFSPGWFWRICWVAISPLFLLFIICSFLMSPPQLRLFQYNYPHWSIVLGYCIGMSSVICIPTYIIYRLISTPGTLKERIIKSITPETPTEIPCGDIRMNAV
value.kind: Ki (nM)
Answers are plain numbers, in nM.

Study these solved cases before continuing.
FC(F)(F)c1cccc(C2CN3CCCC3c3cc(OCCCN4CCCCC4)ccc32)c1 (racemic)    21.7
FC(F)(F)c1ccc(C2CN3CCCC3c3cc(OCCCN4CCCCC4)ccc32)cc1 (racemic)    26.7
O=[N+]([O-])c1ccc(C2CN3CCCC3c3cc(OCCCN4CCCCC4)ccc32)cc1 (racemic)    5.3
Clc1cccc(C2CN3CCCC3c3cc(OCCCN4CCCCC4)ccc32)c1 (racemic)    4
Clc1ccccc1C1CN2CCCC2c2cc(OCCCN3CCCCC3)ccc21 (racemic)    8.7

For record CN(C)c1ccc(C2CN3CCCC3c3cc(OCCCN4CCCCC4)ccc32)cc1 (racemic) the listed Ki is 3.3
